# Assay Info: recombinant barcode read abundance after kanamycin selection (control-corrected) (log10(CPM+1)); higher = more efficient recombination; sequences stand for … in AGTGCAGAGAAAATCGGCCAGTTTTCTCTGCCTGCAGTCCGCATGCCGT…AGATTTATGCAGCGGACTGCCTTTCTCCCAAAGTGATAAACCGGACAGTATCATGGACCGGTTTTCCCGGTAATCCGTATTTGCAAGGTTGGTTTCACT; site = the 11-nt target
recombinant barcode read abundance (log10) below 0.2 gives 0 (no); recombinant barcode read abundance (log10) at or above it gives 1 (yes).

Reference set, count: 10
{"Seq String": "GAGCGCTCTTGGGTTCTAACCTGTTGCCT (site GAGCGCTCTAG)", "Class Label": "1 (yes)"}
{"Seq String": "CAGAAGCCTTGGGTTCTAACCTGTTGCCT (site CAGAAGCCTAG)", "Class Label": "1 (yes)"}
{"Seq String": "GTGTGGACTTGGGTTCTAACCTGTTGCAG (site GTGAGGACTCA)", "Class Label": "0 (no)"}
{"Seq String": "CCTGGGCCTTGGGTTCTAACCTGTTGCTT (site CCTGGGCCTAA)", "Class Label": "1 (yes)"}
{"Seq String": "AACTGTCCTTGGGTTCTAACCTGTTGCAT (site AACTGTCCTAT)", "Class Label": "1 (yes)"}
{"Seq String": "TAGGCTACTTGGGTTCTAACCTGTTGCAG (site TAGGCTACTGT)", "Class Label": "0 (no)"}
{"Seq String": "CTAACCTCTTGGGTTCTAACCTGTTGCAT (site CTATCCTCTAT)", "Class Label": "0 (no)"}
{"Seq String": "AGCGACCCTTGGGTTCTAACCTGTTGCGT (site CGCGATCCTAC)", "Class Label": "0 (no)"}
{"Seq String": "GAGTGGCCTTGGGTTCTAACCTGTTGCGA (site GAGTGGCCTTC)", "Class Label": "1 (yes)"}
{"Seq String": "GCAGGTGCTTGGGTTCTAACCTGTTGCTT (site ATTTCGACTCC)", "Class Label": "0 (no)"}

Input: # check: recombinant barcode read abundance (log10) of CTGAGGCCTTGGGTTCTAACCTGTTGCCT (site TTGAGGCCTAG) is greater than or equal to 0.2
Output: 1 (yes)

Input: Would you mind doing ACACCGCCTTGGGTTCTAACCTGTTGCCT (site TCACCGCCTAG) as well?
Output: 0 (no)

---

# Assay Info: recombinant UMI read abundance after kanamycin selection (control-corrected) (log10(CPM+1)); higher = more efficient recombination; extreme values may be limits of the assay; sequences stand for … in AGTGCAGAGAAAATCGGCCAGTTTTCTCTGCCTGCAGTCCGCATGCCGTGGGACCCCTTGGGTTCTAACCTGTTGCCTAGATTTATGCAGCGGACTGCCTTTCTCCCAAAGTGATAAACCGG…AGGTTGGTTTCACT; site = the 11-nt donor
Measured recombinant UMI read abundance (log10), listed per entry.
// print number alone

Recorded recombinant UMI read abundance (log10), per entry:
{"Seq String": "AGTCAAGCATGGACCGGTTTTCCCGGTAATCCGTATTTGAA (site AGTCAAGCTTT)", "recombinant UMI read abundance (log10)": 1.39}
{"Seq String": "TAGCCTTCATGGACCGGTTTTCCCGGTAATCCGTATTTGGT (site TAACCTTCTAC)", "recombinant UMI read abundance (log10)": 0}
{"Seq String": "AATTATGCATGGACCGGTTTTCCCGGTAATCCGTATTTGAA (site AATTATGCTTC)", "recombinant UMI read abundance (log10)": 0.0246}
{"Seq String": "TAAAGACCATGGACCGGTTTTCCCGGTAATCCGTATTTGTA (site TAAAGACCTTA)", "recombinant UMI read abundance (log10)": 0.299}

Below: the item to evaluate.
Input: Looking for the measured recombinant UMI read abundance (log10) of GATTGGCCATGGACCGGTTTTCCCGGTAATCCGTATTTGAC (site GATTGGGCTGT) , can you help?
Output: 0
